Data origin: patent US20150337019A1

# testSystem: Cathepsin B from bovine spleen (bovine, UniProt P07688 80-332)
# assayComment: cell-based or functional assay
observedProperty: Cathepsin B inhibition test, 2 mM peptide

The cases that follow already have their Cathepsin B inhibition test, 2 mM peptide on record.
Ac-Leu-Val-Lys-NH2 (also: MGO-modified, site not given here) [MGO-modified Ac-LVK-NH2]: 80
Ac-Leu-Ile-Arg-NH2 (also: MGO-modified, site not given here) [MGO-modified Ac-LIR-NH2]: 72.6
Ac-Leu-Leu-Lys-OH [Ac-LLK-OH]: 142
Ac-Leu-Leu-Lys-NH2 (also: MGO-modified, site not given here) [MGO-modified Ac-LLK-NH2]: 137

A: Ac-Leu-Val-Lys-OH [Ac-LVK-OH]
B: Ac-Leu-Ile-Arg-NH2 [Ac-LIR-NH2]
# input Could you check which of A and B has a smaller value for Cathepsin B inhibition test, 2 mM peptide? Refer to your chosen entry by its label in the reply.
# output B
